These data points were gathered from ChEMBL document CHEMBL4715736.

# Tested on: HCT-116
# Assay: Growth inhibition of human HCT-116 cells assessed as cell growth at 10 uM incubated for 48 hrs by sulforhodamine B assay relative to control
# Assay type: functional
# Condition Details: read-out: Activity
Rule: growth at 10 µM of 70% or more gives fulfilled; anything lower gives not fulfilled.

{"columns": ["Molecular String", "Assigned Category"],
 "data": [
  ["Cc1ccc(NC(=O)c2sc3nc4c(cc3c2N)C(=O)CCC4)cc1C", "not fulfilled"],
  ["CC(=O)Nc1ccc(S(=O)(=O)n2ccc(-c3ccc4c(c3)CCC(C)(C)O4)n2)cc1", "not fulfilled"],
  ["COc1ccc(-c2ccn(S(=O)(=O)c3ccc(C)cc3)n2)cc1", "fulfilled"],
  ["Nc1c(C(=O)N(c2ccccc2)c2ccccc2)sc2nc3c(cc12)C(=O)CCC3", "fulfilled"],
  ["CC1(C)CCc2cc(-c3ccn(S(=O)(=O)c4ccccc4)n3)ccc2O1", "not fulfilled"],
  ["O=S(=O)(c1ccccc1)n1ccc(-c2ccc3c(c2)CCO3)n1", "fulfilled"],
  ["CC(=O)c1ccc2c(N)c(C(=O)Nc3ccccc3)sc2n1", "fulfilled"],
  ["COc1ccc(S(=O)(=O)n2ccc(-c3ccc4c(c3)CCC(C)(C)O4)n2)cc1OC", "not fulfilled"]
]}

###

# System: M14
# Assay: Growth inhibition of human M14 cells assessed as cell growth at 100 uM incubated for 48 hrs by sulforhodamine B assay relative to control
# Type: functional
# Condition Details: read-out: Activity
As shown below, each of these molecules has a reported growth at 100 µM value.
Value Type: growth at 100 µM (%)

{"columns": ["Molecular String", "Numeric Value"],
 "data": [
  ["CN1CCc2nc3sc(C(N)=O)c(N)c3c(-c3cccs3)c2C1", -27],
  ["CCc1cccc(C)c1NC(=O)c1sc2nc3c(cc2c1N)C(=O)CCC3", -17],
  ["Cc1cccc(NC(=O)c2sc3nc4c(cc3c2N)C(=O)CCC4)c1", -48],
  ["Cc1cc(C)c(NC(=O)c2sc3nc4c(cc3c2N)CN(Cc2ccccc2)CC4)c(C)c1", -18],
  ["Cc1ccc(NC(=O)c2sc3nc4c(cc3c2N)C(=O)CCC4)cc1C", 4]
]}

###

# System: HL-60(TB)
# Assay: Growth inhibition of human HL-60(TB) cells assessed as cell growth at 1 uM incubated for 48 hrs by sulforhodamine B assay relative to control
# Type: functional
# Condition Details: read-out: Activity
Attribute: growth at 1 µM

{"columns": ["Molecular String", "Units Symbol", "growth at 1 µM"],
 "data": [
  ["CCc1ccccc1NC(=O)c1sc2nc3c(cc2c1N)C(=O)CCC3", "%", 6],
  ["Cc1ccc(NC(=O)c2sc3nc4c(cc3c2N)C(=O)CCC4)cc1C", "%", 6],
  ["CN1CCc2nc3sc(C(N)=O)c(N)c3c(-c3cccs3)c2C1", "%", 95],
  ["CCc1cccc(C)c1NC(=O)c1sc2nc3c(cc2c1N)C(=O)CCC3", "%", 2]
]}

###

# Tested on: Malme-3M
# Assay: Growth inhibition of human Malme-3M cells assessed as cell growth at 1 uM incubated for 48 hrs by sulforhodamine B assay relative to control
# Assay type: functional
# Condition Details: read-out: Activity
In this section, each of the compounds is paired with its reported growth at 1 µM.

{"columns": ["Molecular String", "growth at 1 µM [%]"],
 "data": [
  ["CN1CCc2nc3sc(C(N)=O)c(N)c3c(-c3cccs3)c2C1", 131],
  ["COc1cccc(NC(=O)c2sc3nc4c(cc3c2N)CN(Cc2ccccc2)CC4)c1", 57],
  ["Cc1ccc(NC(=O)c2sc3nc4c(cc3c2N)C(=O)CCC4)cc1C", 24],
  ["Nc1c(C(=O)Nc2ccccc2)sc2nc3c(cc12)CN(Cc1ccccc1)CC3", 87],
  ["Cc1cc(C)c(NC(=O)c2sc3nc4c(cc3c2N)CN(Cc2ccccc2)CC4)c(C)c1", 76],
  ["Cc1cccc(NC(=O)c2sc3nc4c(cc3c2N)C(=O)CCC4)c1", 36],
  ["CCc1cccc(C)c1NC(=O)c1sc2nc3c(cc2c1N)C(=O)CCC3", 31],
  ["CCc1ccccc1NC(=O)c1sc2nc3c(cc2c1N)C(=O)CCC3", 50]
]}

###

# Tested on: MOLT-4
# Assay: Growth inhibition of human MOLT-4 cells assessed as cell growth at 0.1 uM incubated for 48 hrs by sulforhodamine B assay relative to control
# Assay type: functional
# Condition Details: read-out: Activity

{"columns": ["Molecular String", "Assay Target", "growth at 0.1 µM [%]"],
 "data": [
  ["Cc1ccc(NC(=O)c2sc3nc4c(cc3c2N)C(=O)CCC4)cc1C", "MOLT-4", 106],
  ["Cc1cc(C)c(NC(=O)c2sc3nc4c(cc3c2N)CN(Cc2ccccc2)CC4)c(C)c1", "MOLT-4", 98],
  ["Cc1cccc(NC(=O)c2sc3nc4c(cc3c2N)C(=O)CCC4)c1", "MOLT-4", 95],
  ["CCc1cccc(C)c1NC(=O)c1sc2nc3c(cc2c1N)C(=O)CCC3", "MOLT-4", 102],
  ["CN1CCc2nc3sc(C(N)=O)c(N)c3c(-c3cccs3)c2C1", "MOLT-4", 91],
  ["COc1cccc(NC(=O)c2sc3nc4c(cc3c2N)CN(Cc2ccccc2)CC4)c1", "MOLT-4", 104],
  ["Nc1c(C(=O)Nc2ccccc2)sc2nc3c(cc12)CN(Cc1ccccc1)CC3", "MOLT-4", 95],
  ["CCc1ccccc1NC(=O)c1sc2nc3c(cc2c1N)C(=O)CCC3", "MOLT-4", 103]
]}

###

The reader will find reported TGI values listed item by item below.
# Tested on: OVCAR-5
# Assay: Growth inhibition of human OVCAR-5 cells incubated for 48 hrs by sulforhodamine B assay
# Assay type: functional

{"columns": ["Molecular String", "Assay Target", "TGI"],
 "data": [
  ["Cc1cc(C)c(NC(=O)c2sc3nc4c(cc3c2N)CN(Cc2ccccc2)CC4)c(C)c1", "OVCAR-5", "> 100 µM"],
  ["CCc1cccc(C)c1NC(=O)c1sc2nc3c(cc2c1N)C(=O)CCC3", "OVCAR-5", "> 100 µM"],
  ["COc1cccc(NC(=O)c2sc3nc4c(cc3c2N)CN(Cc2ccccc2)CC4)c1", "OVCAR-5", "> 100 µM"],
  ["Nc1c(C(=O)Nc2ccccc2)sc2nc3c(cc12)CN(Cc1ccccc1)CC3", "OVCAR-5", "> 100 µM"],
  ["CCc1ccccc1NC(=O)c1sc2nc3c(cc2c1N)C(=O)CCC3", "OVCAR-5", "> 100 µM"],
  ["Cc1cccc(NC(=O)c2sc3nc4c(cc3c2N)C(=O)CCC4)c1", "OVCAR-5", "≥ 100 µM"],
  ["Cc1ccc(NC(=O)c2sc3nc4c(cc3c2N)C(=O)CCC4)cc1C", "OVCAR-5", "> 100 µM"]
]}

###

# Tested on: PC-3
# Assay: Growth inhibition of human PC-3 cells incubated for 48 hrs by sulforhodamine B assay
# Assay type: functional
# maps each entry to its TGI
Value Type: TGI

{"columns": ["Molecular String", "Result"],
 "data": [
  ["Cc1cccc(NC(=O)c2sc3nc4c(cc3c2N)C(=O)CCC4)c1", "≥ 100 µM"],
  ["Nc1c(C(=O)Nc2ccccc2)sc2nc3c(cc12)CN(Cc1ccccc1)CC3", "> 100 µM"],
  ["Cc1cc(C)c(NC(=O)c2sc3nc4c(cc3c2N)CN(Cc2ccccc2)CC4)c(C)c1", "> 100 µM"],
  ["CCc1cccc(C)c1NC(=O)c1sc2nc3c(cc2c1N)C(=O)CCC3", "> 100 µM"],
  ["COc1cccc(NC(=O)c2sc3nc4c(cc3c2N)CN(Cc2ccccc2)CC4)c1", "91.1 µM"],
  ["CN1CCc2nc3sc(C(N)=O)c(N)c3c(-c3cccs3)c2C1", "> 100 µM"]
]}

###

# Tested on: SK-OV-3
# Assay: Growth inhibition of human SK-OV-3 cells assessed as cell growth at 1 uM incubated for 48 hrs by sulforhodamine B assay relative to control
# Type: functional
# Condition Details: read-out: Activity
Value Type: growth at 1 µM (%)

{"columns": ["Molecular String", "Value Type", "Numeric Value"],
 "data": [
  ["Nc1c(C(=O)Nc2ccccc2)sc2nc3c(cc12)CN(Cc1ccccc1)CC3", "growth at 1 µM", 96],
  ["Cc1cc(C)c(NC(=O)c2sc3nc4c(cc3c2N)CN(Cc2ccccc2)CC4)c(C)c1", "growth at 1 µM", 88],
  ["CN1CCc2nc3sc(C(N)=O)c(N)c3c(-c3cccs3)c2C1", "growth at 1 µM", 89],
  ["Cc1ccc(NC(=O)c2sc3nc4c(cc3c2N)C(=O)CCC4)cc1C", "growth at 1 µM", 29],
  ["COc1cccc(NC(=O)c2sc3nc4c(cc3c2N)CN(Cc2ccccc2)CC4)c1", "growth at 1 µM", 81],
  ["CCc1ccccc1NC(=O)c1sc2nc3c(cc2c1N)C(=O)CCC3", "growth at 1 µM", 30],
  ["Cc1cccc(NC(=O)c2sc3nc4c(cc3c2N)C(=O)CCC4)c1", "growth at 1 µM", 7]
]}
